Target: PI3K delta (Homo sapiens (Human))
Sequence (O00329 other isoform, or with tags, fused parts or gaps linker GGGGGG): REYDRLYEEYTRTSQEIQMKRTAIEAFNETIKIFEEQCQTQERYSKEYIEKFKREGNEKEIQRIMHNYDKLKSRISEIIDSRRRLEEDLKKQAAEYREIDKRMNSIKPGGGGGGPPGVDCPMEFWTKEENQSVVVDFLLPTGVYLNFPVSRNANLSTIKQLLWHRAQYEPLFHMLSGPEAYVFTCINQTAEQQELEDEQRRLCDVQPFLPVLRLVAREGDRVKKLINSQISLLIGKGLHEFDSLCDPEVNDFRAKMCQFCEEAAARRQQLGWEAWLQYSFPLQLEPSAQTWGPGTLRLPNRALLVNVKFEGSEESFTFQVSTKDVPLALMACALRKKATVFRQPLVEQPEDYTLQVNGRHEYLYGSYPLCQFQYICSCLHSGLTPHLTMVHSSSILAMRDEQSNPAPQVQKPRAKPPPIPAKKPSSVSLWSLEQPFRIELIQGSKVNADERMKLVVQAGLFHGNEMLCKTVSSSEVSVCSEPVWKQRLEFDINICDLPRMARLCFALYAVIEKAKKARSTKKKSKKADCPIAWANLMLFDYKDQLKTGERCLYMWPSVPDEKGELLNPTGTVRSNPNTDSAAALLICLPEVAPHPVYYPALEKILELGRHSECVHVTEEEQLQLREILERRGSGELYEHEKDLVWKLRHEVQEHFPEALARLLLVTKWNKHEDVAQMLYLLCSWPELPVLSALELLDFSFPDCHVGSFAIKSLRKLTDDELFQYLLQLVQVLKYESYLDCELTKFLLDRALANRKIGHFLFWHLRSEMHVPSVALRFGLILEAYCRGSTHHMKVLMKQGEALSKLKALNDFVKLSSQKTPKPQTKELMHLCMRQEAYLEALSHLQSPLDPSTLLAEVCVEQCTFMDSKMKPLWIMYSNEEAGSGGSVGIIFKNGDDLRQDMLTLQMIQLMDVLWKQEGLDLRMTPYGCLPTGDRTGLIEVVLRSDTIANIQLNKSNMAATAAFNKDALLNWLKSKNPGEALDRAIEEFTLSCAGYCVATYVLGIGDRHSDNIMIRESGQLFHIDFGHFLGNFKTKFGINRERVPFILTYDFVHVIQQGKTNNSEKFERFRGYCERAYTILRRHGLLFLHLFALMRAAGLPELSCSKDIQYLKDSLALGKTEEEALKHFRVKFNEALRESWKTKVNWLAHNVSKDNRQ
Test: Enzymatic PI3K delta isoform inhibition (lipid kinase activity, Kinase-Glo luminescence)
Details: Enzymatic assay
endpoint.label: pIC50
One number for each entry, as −log10 of the molar value.

Consider the worked cases shown below.
>>> print(df.to_string())
                    structure_smiles_string  reported
0  COc1cc(N2CCOc3ccc(O[C@H]4CCN(C(=O)c5ccc(=O)[nH]c5)C4)cc32)cnc1Cl      7.17
1  COc1ncc(N2CCOc3ccc(O[C@H]4CCN(C(=O)[C@@H]5CCN(C(C)=O)C5)C4)cc32)cc1C      7.62

Hi! Can you tell me pIC50 for each of these molecules?
1. COc1ncc(N2CCOc3ccc(O[C@H]4CCN(C(=O)C5=CC(=O)CC(C)(C)O5)C4)cc32)cc1C#N
2. COc1ncc(N2CCOc3ccc(O[C@H]4CON(C(=O)C5CCOCC5)C4)cc32)cc1C#N

**A:**
1: 7.55; 2: 7.62

* * *

Target: PI3K alpha (Homo sapiens (Human), UniProt P42336)
Sequence (P42336 other isoform, or with tags, fused parts or gaps): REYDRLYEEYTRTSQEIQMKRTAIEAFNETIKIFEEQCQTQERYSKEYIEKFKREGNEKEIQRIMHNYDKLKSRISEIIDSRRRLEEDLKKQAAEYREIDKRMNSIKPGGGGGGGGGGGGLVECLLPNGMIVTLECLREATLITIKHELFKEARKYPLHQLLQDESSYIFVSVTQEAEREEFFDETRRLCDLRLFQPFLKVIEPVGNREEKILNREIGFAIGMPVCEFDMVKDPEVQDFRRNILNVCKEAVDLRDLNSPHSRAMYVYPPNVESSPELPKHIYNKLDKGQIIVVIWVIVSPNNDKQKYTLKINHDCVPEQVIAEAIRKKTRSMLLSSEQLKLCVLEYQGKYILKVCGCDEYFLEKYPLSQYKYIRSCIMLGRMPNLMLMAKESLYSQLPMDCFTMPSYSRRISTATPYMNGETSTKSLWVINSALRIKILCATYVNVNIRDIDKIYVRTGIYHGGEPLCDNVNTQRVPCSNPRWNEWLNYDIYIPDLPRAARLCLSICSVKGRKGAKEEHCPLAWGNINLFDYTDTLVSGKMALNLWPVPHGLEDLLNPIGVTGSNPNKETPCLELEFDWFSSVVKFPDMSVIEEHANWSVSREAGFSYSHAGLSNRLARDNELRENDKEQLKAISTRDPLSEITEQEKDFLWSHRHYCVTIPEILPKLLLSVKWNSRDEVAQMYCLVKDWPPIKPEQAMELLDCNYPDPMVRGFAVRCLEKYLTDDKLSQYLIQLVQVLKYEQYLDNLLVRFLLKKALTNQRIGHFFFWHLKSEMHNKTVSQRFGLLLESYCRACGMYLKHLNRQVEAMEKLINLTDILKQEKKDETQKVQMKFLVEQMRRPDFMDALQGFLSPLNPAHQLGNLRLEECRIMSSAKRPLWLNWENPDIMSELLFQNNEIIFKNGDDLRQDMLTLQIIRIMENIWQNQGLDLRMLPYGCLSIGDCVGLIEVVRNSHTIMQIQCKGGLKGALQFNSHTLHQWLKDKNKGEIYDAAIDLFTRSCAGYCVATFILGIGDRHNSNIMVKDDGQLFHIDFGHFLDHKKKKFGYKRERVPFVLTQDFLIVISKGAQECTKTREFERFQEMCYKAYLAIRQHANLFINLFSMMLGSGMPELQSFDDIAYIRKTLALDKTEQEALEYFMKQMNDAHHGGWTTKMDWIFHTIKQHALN
Assay: Enzymatic PI3K alpha isoform inhibition (lipid kinase activity, Kinase-Glo luminescence)
Conditions: Enzymatic assay
Field 'label' (enum: 1 / -1). Set to 1 when IC50 is strictly under 300 nM; else -1.

**Q:** Quick check: does COc1ncc(N2CCOc3ccc(O[C@H]4CCN(C(=O)c5cccnc5)C4)cc32)cc1C#N [Example C16] have IC50 under 300 nM?
**A:** -1

**Q:** Threshold test, IC50 < 300 nM: Cc1cc(N2CCOc3ccc(O[C@H]4CCN(C(=O)C5COCCO5)C4)cc32)cnc1S(C)(=O)=O (single isomer, unassigned) [Example H4]
**A:** -1

**Q:** A record lists Cc1cc(N2CCOc3ccc(O[C@H]4CCN(C(=O)CCO)C4)cc32)cnc1Cl [Example B61] . Is its IC50 below 300 nM?
**A:** -1

**Q:** Dear colleague, could you confirm whether IC50 of CCC(=O)N1CC[C@H](Oc2ccc3c(c2)N(c2cnc(OC)c(Cl)c2)CCO3)C1 [Example A12] falls below 300 nM? Thanks.
**A:** 1

**Q:** # strict comparison: is reported IC50 < 300 nM? input = Cc1cc(N2CCOc3ccc(O[C@H]4CCN(C(=O)C5COCCO5)C4)cc32)cnc1S(C)(=O)=O (single isomer, unassigned) [Example H3]
**A:** -1

**Q:** Just wondering, is IC50 of Cc1cc(N2CCOc3ccc(O[C@H]4CCN(c5ncccn5)C4)cc32)cnc1S(C)(=O)=O [N] below 300 nM?
**A:** -1

**Q:** Regarding COCCC(=O)N1CC[C@H](Oc2ccc3c(c2)N(c2cnc(S(C)(=O)=O)c(C)c2)CCO3)C1 [Example B37] , kindly confirm whether its IC50 is beneath 300 nM.
**A:** -1

**Q:** # TODO verify IC50 < 300 nM strictly for this compound: COc1ncc(N2CCOc3ccc(O[C@H]4CCN(C(=O)c5oc(C)nc5C)C4)cc32)cc1C#N [Example C20]
**A:** 1

**Q:** Report whether reported IC50 is lower than 300 nM (strictly) for COc1ncc(N2CCOc3cnc(O[C@H]4CCN(C(=O)c5cn(C)cn5)C4)cc32)cc1C(F)F [Example F10]
**A:** 1

**Q:** For this compound, is IC50 lower than 300 nM? COc1ncc(N2CCOc3ccc(O[C@H]4CCN(C(=O)c5cn(C)cn5)C4)cc32)cc1N [T]
**A:** -1

**Q:** Dear reviewer, please state whether CS(=O)(=O)c1ncc(N2CCOc3ccc(O[C@H]4CCN(C(=O)C5CCOCC5)C4)cc32)cc1CF [Example B71] has IC50 strictly beneath 300 nM.
**A:** -1

**Q:** Please check: IC50 for COc1ncc(N2CCOc3ccc(O[C@H]4CCN(C(=O)CS(C)(=O)=O)C4)cc32)cc1F [Example B111] , strictly under 300 nM or not?
**A:** -1

**Q:** Strictly below 300 nM: is that where IC50 of CCC(=O)N1CC[C@H](Oc2ccc3c(c2)N(c2ccc(OC)c(S(=O)(=O)NOC)c2)CCO3)C1 [Example A31] sits?
**A:** -1
